Would you kindly list pIC50 for each of these molecules?
# testedTarget: L-type calcium channel (LTCC) (Rattus norvegicus)
# Construct: The 6.5 kb cDNA encoding the L-type calcium channel α1c subunit was cloned by PCR amplification from rat heart cDNA; expressed in transfected cells; host or cells: HEK293 (ATCC), stably transfected
# Sequence (P22002 whole entry): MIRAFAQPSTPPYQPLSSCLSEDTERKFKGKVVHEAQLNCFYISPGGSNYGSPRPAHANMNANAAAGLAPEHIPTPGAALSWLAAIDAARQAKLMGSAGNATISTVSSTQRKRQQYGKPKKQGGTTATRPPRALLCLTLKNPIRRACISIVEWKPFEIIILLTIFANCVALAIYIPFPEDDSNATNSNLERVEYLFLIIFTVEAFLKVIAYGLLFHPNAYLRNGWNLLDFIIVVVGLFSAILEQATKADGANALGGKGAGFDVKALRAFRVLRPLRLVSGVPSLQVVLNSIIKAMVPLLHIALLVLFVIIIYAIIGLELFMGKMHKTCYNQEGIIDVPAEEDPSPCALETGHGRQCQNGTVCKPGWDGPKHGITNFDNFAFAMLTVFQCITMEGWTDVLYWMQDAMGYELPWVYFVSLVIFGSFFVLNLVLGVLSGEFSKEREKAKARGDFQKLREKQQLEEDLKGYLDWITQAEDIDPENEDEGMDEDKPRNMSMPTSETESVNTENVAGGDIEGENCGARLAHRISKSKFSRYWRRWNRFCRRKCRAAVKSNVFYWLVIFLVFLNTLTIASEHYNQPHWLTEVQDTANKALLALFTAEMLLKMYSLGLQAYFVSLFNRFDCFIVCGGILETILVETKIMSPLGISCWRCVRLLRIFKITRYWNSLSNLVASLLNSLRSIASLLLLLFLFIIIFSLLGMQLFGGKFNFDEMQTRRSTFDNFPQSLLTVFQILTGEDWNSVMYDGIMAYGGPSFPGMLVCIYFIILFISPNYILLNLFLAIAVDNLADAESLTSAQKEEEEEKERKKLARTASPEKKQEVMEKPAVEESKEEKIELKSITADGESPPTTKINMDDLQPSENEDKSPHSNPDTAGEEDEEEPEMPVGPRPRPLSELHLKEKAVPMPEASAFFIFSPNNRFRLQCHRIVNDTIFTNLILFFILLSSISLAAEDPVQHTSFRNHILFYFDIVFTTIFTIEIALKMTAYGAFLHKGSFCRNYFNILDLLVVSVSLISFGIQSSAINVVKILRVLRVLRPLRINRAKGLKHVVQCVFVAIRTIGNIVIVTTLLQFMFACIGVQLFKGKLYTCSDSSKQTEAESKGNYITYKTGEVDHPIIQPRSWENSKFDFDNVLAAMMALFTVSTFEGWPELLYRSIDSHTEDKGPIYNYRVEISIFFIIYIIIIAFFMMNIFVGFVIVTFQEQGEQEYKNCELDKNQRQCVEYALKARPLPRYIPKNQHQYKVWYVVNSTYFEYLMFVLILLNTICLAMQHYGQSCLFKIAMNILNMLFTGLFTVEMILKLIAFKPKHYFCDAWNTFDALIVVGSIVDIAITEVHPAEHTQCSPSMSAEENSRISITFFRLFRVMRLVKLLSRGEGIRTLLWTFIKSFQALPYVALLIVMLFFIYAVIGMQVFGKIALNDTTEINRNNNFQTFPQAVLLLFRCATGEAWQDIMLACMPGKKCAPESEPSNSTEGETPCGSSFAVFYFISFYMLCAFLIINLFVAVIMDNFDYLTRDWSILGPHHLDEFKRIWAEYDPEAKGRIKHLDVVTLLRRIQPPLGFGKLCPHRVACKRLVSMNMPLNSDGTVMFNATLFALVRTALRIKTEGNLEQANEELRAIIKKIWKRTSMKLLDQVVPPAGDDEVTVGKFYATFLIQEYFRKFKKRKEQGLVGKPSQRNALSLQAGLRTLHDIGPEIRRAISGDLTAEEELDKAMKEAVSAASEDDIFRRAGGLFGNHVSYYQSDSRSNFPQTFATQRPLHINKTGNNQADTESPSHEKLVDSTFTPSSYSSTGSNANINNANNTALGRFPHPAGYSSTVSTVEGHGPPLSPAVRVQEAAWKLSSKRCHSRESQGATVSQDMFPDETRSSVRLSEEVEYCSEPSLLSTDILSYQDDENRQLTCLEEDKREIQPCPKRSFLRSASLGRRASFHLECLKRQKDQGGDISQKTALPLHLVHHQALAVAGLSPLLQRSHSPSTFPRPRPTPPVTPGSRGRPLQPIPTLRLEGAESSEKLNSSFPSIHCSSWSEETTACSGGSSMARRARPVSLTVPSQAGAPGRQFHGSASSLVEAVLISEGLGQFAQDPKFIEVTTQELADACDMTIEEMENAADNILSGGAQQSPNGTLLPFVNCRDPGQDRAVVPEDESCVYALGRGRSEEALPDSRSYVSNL
# Sequence (P54290 25-944 partner limits assumed): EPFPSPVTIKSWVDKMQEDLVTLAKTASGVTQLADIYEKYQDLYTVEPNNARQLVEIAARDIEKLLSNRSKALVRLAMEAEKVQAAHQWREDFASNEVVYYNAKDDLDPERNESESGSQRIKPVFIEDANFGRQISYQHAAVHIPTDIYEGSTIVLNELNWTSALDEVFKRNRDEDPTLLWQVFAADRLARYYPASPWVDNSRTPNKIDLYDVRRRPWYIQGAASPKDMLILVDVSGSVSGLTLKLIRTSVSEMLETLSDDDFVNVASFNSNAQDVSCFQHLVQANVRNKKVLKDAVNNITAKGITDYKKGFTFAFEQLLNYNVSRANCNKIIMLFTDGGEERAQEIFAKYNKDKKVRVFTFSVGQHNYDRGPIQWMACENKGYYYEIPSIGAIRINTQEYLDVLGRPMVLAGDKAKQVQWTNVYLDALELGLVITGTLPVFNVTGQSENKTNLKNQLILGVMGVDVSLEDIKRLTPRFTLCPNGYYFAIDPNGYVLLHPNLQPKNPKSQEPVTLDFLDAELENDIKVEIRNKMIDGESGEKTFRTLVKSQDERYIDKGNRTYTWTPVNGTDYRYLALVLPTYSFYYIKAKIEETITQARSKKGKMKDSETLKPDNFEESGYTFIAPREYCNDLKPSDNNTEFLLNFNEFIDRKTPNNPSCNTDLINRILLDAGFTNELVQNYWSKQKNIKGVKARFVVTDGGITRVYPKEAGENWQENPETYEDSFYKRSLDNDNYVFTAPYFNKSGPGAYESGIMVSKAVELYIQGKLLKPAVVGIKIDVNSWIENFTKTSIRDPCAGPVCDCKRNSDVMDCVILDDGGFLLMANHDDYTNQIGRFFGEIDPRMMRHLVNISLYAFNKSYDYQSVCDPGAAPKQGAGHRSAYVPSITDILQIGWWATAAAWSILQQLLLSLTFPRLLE
# Sequence (P54290 945-1091 partner limits assumed): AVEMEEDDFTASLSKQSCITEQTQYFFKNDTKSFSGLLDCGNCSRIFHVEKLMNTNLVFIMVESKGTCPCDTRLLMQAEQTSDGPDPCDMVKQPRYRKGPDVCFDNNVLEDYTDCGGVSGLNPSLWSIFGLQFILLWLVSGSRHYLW
# Sequence (P54283 whole entry partner): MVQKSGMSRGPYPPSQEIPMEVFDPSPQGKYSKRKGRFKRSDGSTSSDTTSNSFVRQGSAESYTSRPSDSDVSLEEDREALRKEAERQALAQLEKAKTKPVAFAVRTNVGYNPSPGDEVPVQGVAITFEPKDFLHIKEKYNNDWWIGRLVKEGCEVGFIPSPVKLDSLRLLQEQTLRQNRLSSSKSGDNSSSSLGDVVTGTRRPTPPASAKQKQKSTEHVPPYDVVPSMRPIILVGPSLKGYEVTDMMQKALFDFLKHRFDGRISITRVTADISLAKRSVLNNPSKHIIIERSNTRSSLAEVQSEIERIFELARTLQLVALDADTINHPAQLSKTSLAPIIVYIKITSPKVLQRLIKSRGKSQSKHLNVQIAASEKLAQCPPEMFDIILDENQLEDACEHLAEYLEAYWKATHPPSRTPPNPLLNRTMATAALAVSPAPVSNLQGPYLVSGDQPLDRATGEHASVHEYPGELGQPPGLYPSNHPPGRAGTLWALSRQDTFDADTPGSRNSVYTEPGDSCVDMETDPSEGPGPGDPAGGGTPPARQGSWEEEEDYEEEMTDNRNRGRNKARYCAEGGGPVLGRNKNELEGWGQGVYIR
# method: FLIPR calcium mobilization assay for L-type calcium channel (HEK293 cells expressing recombinant rat LTCC subunits, or alternatively differentiated A7r5 cells)
# Assay type: cell-based
# conditions: calcium mobilization in vitro assay; L-type calcium channel block
pIC50: −log10 of the molar value.

// map O=C1OC2(CCN(CCCN(c3ccc(F)cc3)c3ccc(F)cc3)CC2)c2ccccc21 [Compound 68] to recorded pIC50 (system: L-type calcium channel (LTCC) (Rattus norvegicus)) < 4.70

Please report pIC50 for every entry that follows.
1. O=C(CCC(c1ccc(F)cc1)c1ccc(F)cc1)N1CCC2(CCc3ccccc32)CC1 [Compound 35]
2. O=C1NC2(CCN(CCCC(c3ccc(F)cc3)c3ccc(F)cc3)CC2)c2ccccc21

1: < 4.70; 2: < 4.70

Provenance of the data: patent US8193208B2
